This collection of values is drawn from patent US20250129067A1.

Catalogue of MBP Fold Induction (Over vehicle) readings, one per entry.
test system: Oligodendrocyte progenitor cells (OPCs); assay: In vitro OPC differentiation assay, MBP expression (immunocytochemistry); settings: 72 hours of treatment; fold change over vehicle

Cn1cc(-c2ccc3c(N4CCN(c5ncc(Cc6ccccc6)cn5)CC4)cnn3n2)cn1 [Compound 8] :: 2.33
Cn1cc(-c2ccc3c(N4CCN(c5ncc(Cc6ccncc6)cn5)CC4)cnn3c2)cn1 [Compound 179] :: 10.12
C[C@@H](OC(=O)N1CCN(c2cnn3cc(-c4cnn(C)c4)ccc23)CC1)c1cccc2ccccc12 [Compound 269] :: 13.54
C[C@@H](OC(=O)N1CCN(c2cnn3cc(-c4cnn(C)c4)ccc23)CC1)c1ccc(C(F)(F)F)cc1 [Compound 313] :: 116.12
C[C@@H](NC(=O)N1CCN(c2cnn3cc(-c4cnn(C)c4)ccc23)CC1)c1ccc(Cl)cc1 [Compound 274] :: 24.95

# MBP Fold Induction (Over vehicle) lookup, item CCC(CC)Cc1cnc(N2CCN(c3cnn4cc(-c5cnn(C)c5)ccc34)CC2)nc1 [Compound 153]
4.86

Request the reported MBP Fold Induction (Over vehicle) associated with Cn1cc(-c2ccc3c(N4CCN(c5ncc(C(C)(O)c6ccc(F)cc6)cn5)CC4)cnn3c2)cn1 (stereo not shown) [Compound 46]
3.97

So what's the measured MBP Fold Induction (Over vehicle) for this one? CC(OC(=O)N1CCN(c2cnn3cc(-c4cnn(C)c4)ccc23)CC1)c1ccc(Cl)cc1 (stereo not shown) [Compound 265]
20.78

Return reported MBP Fold Induction (Over vehicle); argument: C[C@@H](OC(=O)N1CCN(c2cnn3cc(-c4cnn(C)c4)ncc23)CC1)c1ccccc1 [Compound 49]
2.45

* * *

target: PDGFRα (Homo sapiens (Human), UniProt P16234); experiment: PDGFRα kinase enzyme assay (Promega PDGFRα Kinase Enzyme System, ADP-Glo); type: biochemical; details: 11-point dose response, 10,000 nM to 0.169 nM; 150 uM ATP; BLQ = below limit of quantitation; read-out: IC50 Values on PDGFRα Kinase Inhibition, IC50
Sequence (P16234 24-1089): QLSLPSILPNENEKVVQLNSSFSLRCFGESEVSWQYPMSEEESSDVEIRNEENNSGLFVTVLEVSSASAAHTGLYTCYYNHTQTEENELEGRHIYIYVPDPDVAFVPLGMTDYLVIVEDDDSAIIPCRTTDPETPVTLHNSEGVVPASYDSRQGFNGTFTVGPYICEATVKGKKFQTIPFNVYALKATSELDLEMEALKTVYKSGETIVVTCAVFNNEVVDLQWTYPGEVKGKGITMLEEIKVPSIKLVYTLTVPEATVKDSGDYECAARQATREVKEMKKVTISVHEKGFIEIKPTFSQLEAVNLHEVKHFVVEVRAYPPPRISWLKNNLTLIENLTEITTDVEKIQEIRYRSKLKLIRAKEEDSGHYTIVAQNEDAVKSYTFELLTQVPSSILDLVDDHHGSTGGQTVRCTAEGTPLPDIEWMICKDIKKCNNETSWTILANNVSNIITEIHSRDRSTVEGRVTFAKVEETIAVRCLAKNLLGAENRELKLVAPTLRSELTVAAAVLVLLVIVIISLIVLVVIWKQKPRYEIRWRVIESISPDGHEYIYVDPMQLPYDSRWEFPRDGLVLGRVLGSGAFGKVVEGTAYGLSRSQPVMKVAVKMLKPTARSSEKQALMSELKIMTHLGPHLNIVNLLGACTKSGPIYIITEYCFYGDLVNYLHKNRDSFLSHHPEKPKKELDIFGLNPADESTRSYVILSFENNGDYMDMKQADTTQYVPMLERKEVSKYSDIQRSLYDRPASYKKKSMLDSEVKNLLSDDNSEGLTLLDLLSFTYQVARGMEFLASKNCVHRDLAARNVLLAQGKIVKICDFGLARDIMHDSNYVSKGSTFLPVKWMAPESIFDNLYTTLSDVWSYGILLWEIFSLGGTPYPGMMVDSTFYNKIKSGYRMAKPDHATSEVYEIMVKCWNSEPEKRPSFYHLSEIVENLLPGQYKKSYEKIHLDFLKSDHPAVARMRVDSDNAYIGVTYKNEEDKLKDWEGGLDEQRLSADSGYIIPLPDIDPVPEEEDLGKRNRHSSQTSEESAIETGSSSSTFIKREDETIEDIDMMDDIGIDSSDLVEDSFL
Measured IC50 of individual entries
Answer with a number only, understood to be in nM.

Name the recorded IC50 for `CC(C)N(C)C(=O)N1CCN(c2cnn3cc(-c4cnn(C)c4)ccc23)CC1` .
674

Suppose we examine the molecule `COc1ccc(Cc2cnc(N3CCN(c4cnn5cc(-c6cnn(C)c6)ccc45)CC3)nc2)cc1` ; what IC50 value has been reported?
267

What value of IC50 has been reported for the following molecule? `CN(CCNc1cnn2cc(-c3cnn(C)c3)ccc12)c1ncc(Cc2ccccc2)cn1`
7120

Field request: IC50 | item: `CCCCCc1cnc(N2CCN(c3cnn4cc(-c5cnn(C)c5)ccc34)CC2)nc1`
543

Name the reported IC50 value associated with the molecule `Cn1cc(-c2ccc3c(N4CCN(C(=O)OCCC5CCOCC5)CC4)cnn3c2)cn1`
1410

Looking for the measured IC50 of `Cn1cc(-c2ccc3c(N4CCN(c5ncc(Cc6nccs6)cn5)CC4)cnn3c2)cn1` , can you help?
6990

# lookup: IC50 of `CN(Cc1ccc(Cl)cc1)C(=O)N1CCN(c2cnn3cc(-c4cnn(C)c4)ccc23)CC1`
1400

Requested read-out: IC50. Entry: `Cn1cc(-c2ccc3c(N4CCC(C(=O)NCc5ccccc5)CC4)cnn3c2)cn1`
5690

Consider the molecule `CC(C)(C)OC(=O)N1CCN(c2cnn3cc(-c4cnn5c4CCCC5)ccc23)CC1` and give its measured IC50.
696
